Settings: in methanol, 288.19 K
measurementName: solubility (mole fraction)
Could you keep your reply to the number by itself?

Give solubility (mole fraction) for CC(CN1c2ccccc2S(=O)(=O)c2ccccc21)N(C)C.Cl (stereo unspecified)
0.00112

----------
Conditions: in ethanol, 298.21 K
measurementName: solubility (mole fraction)
The answer should be a number; do not append a unit.

Return solubility (mole fraction) (reported value) for this molecule: CC(CN1c2ccccc2S(=O)(=O)c2ccccc21)N(C)C.Cl (stereo unspecified)
0.000419

----------
Conditions: in NMP, 283.2 K
measurementName: solubility (mole fraction)
Response field accepts a number only; no unit should be typed.

For the compound CC(CN1c2ccccc2S(=O)(=O)c2ccccc21)N(C)C.Cl (stereo unspecified) , give its reported solubility (mole fraction).
0.00692

----------
Conditions: in ethanol, 288.22 K
measurementName: solubility (mole fraction)
Returns: the value as a bare number; no unit string appended.

// fetch solubility (mole fraction) given entry CC(CN1c2ccccc2S(=O)(=O)c2ccccc21)N(C)C.Cl (stereo unspecified)
0.000322

----------
Conditions: in acetic acid, 318.22 K
measurementName: solubility (mole fraction)
Lab note: write the figure by itself, no unit.

Please report solubility (mole fraction) for the following compound: CC(CN1c2ccccc2S(=O)(=O)c2ccccc21)N(C)C.Cl (stereo unspecified)
0.00689

----------
Conditions: in NMP, 288.24 K
measurementName: solubility (mole fraction)
Respond numerically, and do not add a unit to the figure.

Item CC(CN1c2ccccc2S(=O)(=O)c2ccccc21)N(C)C.Cl (stereo unspecified) : provide solubility (mole fraction)
0.00747

----------
Details: in NMP, 323.27 K
measurementName: solubility (mole fraction)

Supply reported solubility (mole fraction) belonging to this compound: CC(CN1c2ccccc2S(=O)(=O)c2ccccc21)N(C)C.Cl (stereo unspecified)
0.0119

----------
Conditions: in water, 298.18 K
measurementName: solubility (mole fraction)
// keep it numeric: no unit symbol after the value

Identify solubility (mole fraction) associated with the compound CC(CN1c2ccccc2S(=O)(=O)c2ccccc21)N(C)C.Cl (stereo unspecified)
0.00302

----------
Conditions: in acetic acid, 303.18 K
measurementName: solubility (mole fraction)
Give the figure by itself; no unit, no explanation.

Entry CC(CN1c2ccccc2S(=O)(=O)c2ccccc21)N(C)C.Cl (stereo unspecified) needs its solubility (mole fraction) filled in; supply it.
0.00347

----------
Details: in acetic acid, 328.23 K
measurementName: solubility (mole fraction)

Supply solubility (mole fraction) value. Item: CC(CN1c2ccccc2S(=O)(=O)c2ccccc21)N(C)C.Cl (stereo unspecified)
0.01

----------
Conditions: in DMF, 288.27 K
measurementName: solubility (mole fraction)

Answer with the recorded solubility (mole fraction) for the compound listed here: CC(CN1c2ccccc2S(=O)(=O)c2ccccc21)N(C)C.Cl (stereo unspecified)
0.00448

----------
Details: in acetone, 313.2 K
measurementName: solubility (mole fraction)
Write the number on its own, no unit after it.

Give reported solubility (mole fraction) value for CC(CN1c2ccccc2S(=O)(=O)c2ccccc21)N(C)C.Cl (stereo unspecified)
0.000258

----------
Conditions: in DMF, 298.17 K
measurementName: solubility (mole fraction)
Could you keep your reply to the number by itself?

Fill in reported solubility (mole fraction) for this entry: CC(CN1c2ccccc2S(=O)(=O)c2ccccc21)N(C)C.Cl (stereo unspecified)
0.00514

----------
Details: in DMF, 283.2 K
measurementName: solubility (mole fraction)
The answer should be written as a number, with no unit following it.

Retrieve solubility (mole fraction) measured for CC(CN1c2ccccc2S(=O)(=O)c2ccccc21)N(C)C.Cl (stereo unspecified) and print it.
0.00418
